Where do the numbers come from? From ChEMBL document CHEMBL4665670.

experiment: Terminal plasma concentration in ovalbumin-immunized C57Bl6 mouse at 60 mg/kg, po administered 2 h prior to OVA immunization and measured after 5 hrs; type: ADME, organism-based; details: read-out: Cp(T)
endpoint.label: concentration at 2 h
Number first, unit second.

Query: // concentration at 2 h lookup, key: C=CC(=O)N(C)Cc1c[nH]c2ncnc(-c3cccc(NC(=O)c4ccc(C(C)(C)C)cc4)c3C)c12
Response: 118 nM

* * *

experiment: Oral bioavailability in Sprague-Dawley rat at 3 mg/kg measured up to 24 hrs by HPLC analysis; format: ADME, organism-based; settings: in vivo
endpoint.label: bioavailability
Number first, unit second.

Query: // bioavailability lookup, key: C=CC(=O)N(C)Cc1c[nH]c2ncnc(-c3cccc(NC(=O)c4ccc(C(C)(C)C)cc4)c3C)c12
Response: 2%

* * *

experiment: Clearance in Sprague-Dawley rat at 1 mg/kg, iv measured up to 24 hrs by HPLC analysis; assay type: ADME, organism-based; conditions: in vivo
clearance values for the compounds below.
Provide only the numeric value, understood in mL/min/kg.

>  <smiles.string>
C=CC(=O)N(C)C(=O)Cc1c[nH]c2ncnc(-c3cc(F)cc(NC(=O)c4ccc(C5CC5)cc4)c3C)c12

>  <clearance, mL/min/kg>
300

$$$$
>  <smiles.string>
C=CC(=O)N1CC(O)(c2c[nH]c3ncnc(-c4cc(F)cc(NC(=O)c5ccc(C6CC6)cc5)c4C)c23)C1

>  <clearance, mL/min/kg>
183

$$$$

Shifting focus to the compound that follows.
Query: // clearance lookup, key: Cc1c(NC(=O)c2ccc(C3CC3)cc2)cc(F)cc1-c1ncnc2[nH]cc(C3=CCN(C(=O)/C=C/CN4CCCC4)CC3)c12
Response: 176

* * *

molecular target: UniProt P00533; assay: Inhibition of EGFR (unknown origin)
pIC50: −log10 of the molar value.
endpoint.label: pIC50

Query: Please provide the recorded pIC50 for C=CC(=O)N(C)Cc1c[nH]c2ncnc(-c3cccc(NC(=O)c4ccc(C(C)(C)C)cc4)c3C)c12 , tested on UniProt P00533.
Response: < 5.00

* * *

assay: Intrinsic clearance in human liver microsomes; type: ADME, Microsome
log10 of Intrinsic clearance (CLint) values for the compounds below.
Please be aware that the numbers have been log10-transformed from Intrinsic clearance (CLint) in µL/min/mg.

>  <compound>
C=CC(=O)N1CC=C(c2c[nH]c3ncnc(-c4cc(F)cc(NC(=O)c5ccc(C6CC6)cc5)c4C)c23)CC1

>  <endpoint.label>
log10 of Intrinsic clearance (CLint)

>  <readout.value>
2.82

$$$$
>  <compound>
C=CC(=O)N(C)C(=O)Cc1c[nH]c2ncnc(-c3cc(F)cc(NC(=O)c4ccc(C5CC5)cc4)c3C)c12

>  <endpoint.label>
log10 of Intrinsic clearance (CLint)

>  <readout.value>
1.59

$$$$
>  <compound>
C=CC(=O)N1CCC(c2c[nH]c3ncnc(-c4cc(F)cc(NC(=O)c5ccc(C6CC6)cc5)c4C)c23)CC1

>  <endpoint.label>
log10 of Intrinsic clearance (CLint)

>  <readout.value>
2.10

$$$$
>  <compound>
C=CC(=O)N1CCC(c2c[nH]c3ncnc(-c4cc(F)cc(NC(=O)c5ccc(C6CC6)cc5)c4C)c23)C1 (stereo not drawn)

>  <endpoint.label>
log10 of Intrinsic clearance (CLint)

>  <readout.value>
2.05

$$$$
>  <compound>
C=CC(=O)N(C)Cc1c[nH]c2ncnc(-c3cccc(NC(=O)c4ccc(C5CC5)cc4)c3C)c12

>  <endpoint.label>
log10 of Intrinsic clearance (CLint)

>  <readout.value>
2.40

$$$$

Shifting focus to the compound that follows.
Query: // log10 of Intrinsic clearance (CLint) lookup, key: C=CC(=O)N1CC(O)(c2c[nH]c3ncnc(-c4cc(F)cc(NC(=O)c5ccc(C6CC6)cc5)c4C)c23)C1
Response: 0.48

* * *

molecular target: Receptor tyrosine-protein kinase erbB-4 (Homo sapiens, UniProt Q15303)
Sequence (Q15303 whole entry): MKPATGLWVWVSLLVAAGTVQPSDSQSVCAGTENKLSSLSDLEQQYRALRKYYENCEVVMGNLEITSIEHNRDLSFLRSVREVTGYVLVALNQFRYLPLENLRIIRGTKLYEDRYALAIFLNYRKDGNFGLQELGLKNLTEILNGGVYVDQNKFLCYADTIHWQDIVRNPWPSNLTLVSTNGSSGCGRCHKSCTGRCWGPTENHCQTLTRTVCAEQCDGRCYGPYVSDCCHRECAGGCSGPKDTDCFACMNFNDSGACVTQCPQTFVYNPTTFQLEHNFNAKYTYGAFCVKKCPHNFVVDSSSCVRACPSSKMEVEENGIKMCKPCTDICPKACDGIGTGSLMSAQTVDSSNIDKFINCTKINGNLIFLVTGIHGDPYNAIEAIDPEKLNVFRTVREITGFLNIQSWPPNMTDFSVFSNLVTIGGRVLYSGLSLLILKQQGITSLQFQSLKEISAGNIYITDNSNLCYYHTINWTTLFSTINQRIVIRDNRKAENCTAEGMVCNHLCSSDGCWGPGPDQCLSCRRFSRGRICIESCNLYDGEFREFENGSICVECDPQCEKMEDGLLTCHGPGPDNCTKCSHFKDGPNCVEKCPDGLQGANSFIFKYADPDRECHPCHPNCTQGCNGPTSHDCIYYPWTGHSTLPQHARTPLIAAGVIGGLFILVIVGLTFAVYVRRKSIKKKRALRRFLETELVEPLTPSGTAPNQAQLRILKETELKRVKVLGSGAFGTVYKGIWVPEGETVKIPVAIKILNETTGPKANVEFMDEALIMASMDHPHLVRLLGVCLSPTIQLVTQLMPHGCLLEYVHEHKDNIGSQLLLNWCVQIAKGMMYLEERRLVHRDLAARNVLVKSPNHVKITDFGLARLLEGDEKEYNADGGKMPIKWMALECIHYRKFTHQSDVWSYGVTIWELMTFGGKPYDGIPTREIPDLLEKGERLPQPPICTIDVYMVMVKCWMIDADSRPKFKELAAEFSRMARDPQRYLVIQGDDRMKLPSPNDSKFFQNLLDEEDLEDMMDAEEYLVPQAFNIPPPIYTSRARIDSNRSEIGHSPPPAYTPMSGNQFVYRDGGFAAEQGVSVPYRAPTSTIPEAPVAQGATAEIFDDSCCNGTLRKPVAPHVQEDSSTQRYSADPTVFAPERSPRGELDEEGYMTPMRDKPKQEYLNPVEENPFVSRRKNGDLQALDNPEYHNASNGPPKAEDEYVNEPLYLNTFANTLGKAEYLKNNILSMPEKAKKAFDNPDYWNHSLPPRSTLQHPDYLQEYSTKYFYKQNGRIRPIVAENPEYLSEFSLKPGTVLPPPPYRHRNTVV
endpoint.label: IC50

Query: // IC50 lookup, key: C=CC(=O)N(C)Cc1c[nH]c2ncnc(-c3cccc(NC(=O)c4ccc(C(C)(C)C)cc4)c3C)c12
Response: > 10 µM

* * *

molecular target: Epidermal growth factor receptor (Homo sapiens, UniProt P00533); assay: Inhibition of EGF-induced EGFR phosphorylation in human A431 cells preincubated for 24 hrs followed by EGF stimulation and measured after 10 mins by HTRF based immunoassay; assay type: cell-based
Sequence (P00533 whole entry): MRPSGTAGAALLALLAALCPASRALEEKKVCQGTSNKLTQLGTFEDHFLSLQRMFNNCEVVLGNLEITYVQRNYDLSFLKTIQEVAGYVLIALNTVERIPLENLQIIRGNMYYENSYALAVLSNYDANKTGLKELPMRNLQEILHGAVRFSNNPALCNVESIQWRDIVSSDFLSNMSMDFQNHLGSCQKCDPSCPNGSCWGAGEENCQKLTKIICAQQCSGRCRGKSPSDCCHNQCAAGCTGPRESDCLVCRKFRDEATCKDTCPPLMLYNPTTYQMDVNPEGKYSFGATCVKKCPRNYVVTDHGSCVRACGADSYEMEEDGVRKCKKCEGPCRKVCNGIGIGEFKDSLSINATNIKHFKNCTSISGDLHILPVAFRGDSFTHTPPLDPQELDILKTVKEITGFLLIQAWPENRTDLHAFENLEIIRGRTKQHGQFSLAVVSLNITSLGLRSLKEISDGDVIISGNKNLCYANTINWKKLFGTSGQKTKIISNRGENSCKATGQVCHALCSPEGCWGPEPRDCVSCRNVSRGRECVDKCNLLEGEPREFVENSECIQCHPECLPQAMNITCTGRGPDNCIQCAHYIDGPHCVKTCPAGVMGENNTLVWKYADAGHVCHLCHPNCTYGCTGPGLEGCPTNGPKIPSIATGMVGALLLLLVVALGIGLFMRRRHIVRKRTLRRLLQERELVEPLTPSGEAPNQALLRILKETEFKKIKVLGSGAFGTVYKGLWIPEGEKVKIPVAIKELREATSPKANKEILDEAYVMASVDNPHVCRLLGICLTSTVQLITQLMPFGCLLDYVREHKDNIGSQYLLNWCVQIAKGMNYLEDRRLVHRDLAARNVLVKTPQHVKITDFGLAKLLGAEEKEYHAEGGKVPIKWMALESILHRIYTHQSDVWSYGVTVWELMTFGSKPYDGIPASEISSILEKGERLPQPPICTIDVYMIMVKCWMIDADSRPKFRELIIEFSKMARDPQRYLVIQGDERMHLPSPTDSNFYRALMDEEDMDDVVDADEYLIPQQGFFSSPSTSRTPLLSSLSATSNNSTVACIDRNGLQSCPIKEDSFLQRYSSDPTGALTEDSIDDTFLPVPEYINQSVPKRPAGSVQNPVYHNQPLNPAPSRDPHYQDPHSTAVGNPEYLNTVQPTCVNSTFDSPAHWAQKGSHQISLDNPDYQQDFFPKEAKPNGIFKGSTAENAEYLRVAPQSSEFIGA
endpoint.label: IC50

Query: // IC50 lookup, key: C=CC(=O)N(C)Cc1c[nH]c2ncnc(-c3cccc(NC(=O)c4ccc(C(C)(C)C)cc4)c3C)c12
Response: > 8 µM

* * *

test: Intrinsic clearance in mouse liver microsomes; assay type: ADME, Microsome
endpoint.label: CLH

Query: // CLH lookup, key: C=CC(=O)N(C)Cc1c[nH]c2ncnc(-c3cccc(NC(=O)c4ccc(C(C)(C)C)cc4)c3C)c12
Response: 554 µL/min/mg

* * *

assay: Clearance in Sprague-Dawley rat at 3 mg/kg, po measured up to 24 hrs by HPLC analysis; assay type: ADME, organism-based; settings: in vivo
endpoint.label: CL/F

Query: // CL/F lookup, key: C=CC(=O)N(C)Cc1c[nH]c2ncnc(-c3cccc(NC(=O)c4ccc(C(C)(C)C)cc4)c3C)c12
Response: > 300 mL/min/kg

* * *

molecular target: Tyrosine-protein kinase BTK (Homo sapiens); test: Inhibition of full length human unphosphorylated BTK using FITC-Ahx-TSELKKVVALYDYMPMNAND-NH2 as substrate incubated for 60 mins in presence of ATP at Km concentration
Sequence (Q06187 whole entry): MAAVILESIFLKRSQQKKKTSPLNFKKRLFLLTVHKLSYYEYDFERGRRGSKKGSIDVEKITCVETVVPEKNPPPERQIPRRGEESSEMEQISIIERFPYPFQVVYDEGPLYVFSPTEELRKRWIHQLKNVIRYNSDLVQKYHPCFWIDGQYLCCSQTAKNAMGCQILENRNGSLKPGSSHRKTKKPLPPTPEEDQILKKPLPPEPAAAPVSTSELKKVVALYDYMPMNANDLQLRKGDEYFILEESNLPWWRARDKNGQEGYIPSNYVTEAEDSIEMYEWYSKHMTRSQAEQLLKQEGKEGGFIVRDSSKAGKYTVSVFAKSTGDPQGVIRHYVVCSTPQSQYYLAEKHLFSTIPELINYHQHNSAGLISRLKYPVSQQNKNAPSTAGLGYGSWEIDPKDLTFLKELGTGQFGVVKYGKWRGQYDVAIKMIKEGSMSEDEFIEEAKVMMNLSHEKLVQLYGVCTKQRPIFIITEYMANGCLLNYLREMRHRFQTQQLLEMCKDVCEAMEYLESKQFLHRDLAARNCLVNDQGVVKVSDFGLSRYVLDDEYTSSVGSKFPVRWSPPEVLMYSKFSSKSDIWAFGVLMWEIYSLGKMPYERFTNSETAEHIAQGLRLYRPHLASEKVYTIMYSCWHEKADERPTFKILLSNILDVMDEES
pIC50 values for the molecules below.
# log scale: pIC50 equals minus log10 of the concentration in mol/L

Worked examples, 8 molecules total:
>  <molecule>
C=CC(=O)N1CCC(c2c[nH]c3ncnc(-c4cc(F)cc(NC(=O)c5ccc(C6CC6)cc5)c4C)c23)CC1

>  <pIC50>
9.00

$$$$
>  <molecule>
C=CC(=O)N1CCC(c2c[nH]c3ncnc(-c4cc(F)cc(NC(=O)c5ccc(C6CC6)cc5)c4C)c23)C1 (stereo not given)

>  <pIC50>
8.30

$$$$
>  <molecule>
C=CC(=O)N1CCCC(c2c[nH]c3ncnc(-c4cc(F)cc(NC(=O)c5ccc(C6CC6)cc5)c4C)c23)C1 (stereo not given)

>  <pIC50>
6.41

$$$$
>  <molecule>
C=CC(=O)N(C)Cc1c[nH]c2ncnc(-c3cc(F)cc(NC(=O)c4ccc(C5CC5)cc4)c3C)c12

>  <pIC50>
7.59

$$$$
>  <molecule>
C/C=C/C(=O)N1CC=C(c2c[nH]c3ncnc(-c4cc(F)cc(NC(=O)c5ccc(C6CC6)cc5)c4C)c23)CC1

>  <pIC50>
8.22

$$$$
>  <molecule>
C=CC(=O)N(C)C(=O)Cc1c[nH]c2ncnc(-c3cc(F)cc(NC(=O)c4ccc(C5CC5)cc4)c3C)c12

>  <pIC50>
8.92

$$$$
>  <molecule>
CCC(=O)N(C)Cc1c[nH]c2ncnc(-c3cccc(NC(=O)c4ccc(C(C)(C)C)cc4)c3C)c12

>  <pIC50>
5.41

$$$$
>  <molecule>
C=CC(=O)N1CC(O)(c2c[nH]c3ncnc(-c4cc(F)cc(NC(=O)c5ccc(C6CC6)cc5)c4C)c23)C1

>  <pIC50>
8.85

$$$$

Query: // pIC50 lookup, key: Cc1c(NC(=O)c2ccc(C3CC3)cc2)cc(F)cc1-c1ncnc2[nH]cc(C3=CCN(C(=O)/C=C/CN4CCCC4)CC3)c12
Response: 9.22

Query: // pIC50 lookup, key: C=CC(=O)N(C)Cc1c[nH]c2ncnc(-c3cccc(NC(=O)c4ccc(C5CC5)cc4)c3C)c12
Response: 6.72

* * *

test: Intrinsic clearance in human liver microsomes; assay type: ADME, Microsome
Intrinsic clearance (CLint) values for the compounds below.
Provide only the numeric value, understood in µL/min/mg.

Worked examples, 2 compounds total:
>  <compound>
C/C=C/C(=O)N1CC=C(c2c[nH]c3ncnc(-c4cc(F)cc(NC(=O)c5ccc(C6CC6)cc5)c4C)c23)CC1

>  <Intrinsic clearance (CLint) / µL/min/mg>
459

$$$$
>  <compound>
C=CC(=O)N1CCCC(c2c[nH]c3ncnc(-c4cc(F)cc(NC(=O)c5ccc(C6CC6)cc5)c4C)c23)C1 (stereo not drawn)

>  <Intrinsic clearance (CLint) / µL/min/mg>
603

$$$$

Shifting focus to the compound that follows.
Query: // Intrinsic clearance (CLint) lookup, key: C=CC(=O)N(C)Cc1c[nH]c2ncnc(-c3cc(F)cc(NC(=O)c4ccc(C5CC5)cc4)c3C)c12
Response: 308

* * *

test: Intrinsic clearance in rat liver microsomes; assay type: ADME, Microsome
Intrinsic clearance (CLint) values for the compounds below.
Provide only the numeric value, understood in µL/min/mg.

>  <compound>
C=CC(=O)N(C)C(=O)Cc1c[nH]c2ncnc(-c3cc(F)cc(NC(=O)c4ccc(C5CC5)cc4)c3C)c12

>  <readout.value>
98

$$$$
>  <compound>
C=CC(=O)N1CC=C(c2c[nH]c3ncnc(-c4cc(F)cc(NC(=O)c5ccc(C6CC6)cc5)c4C)c23)CC1

>  <readout.value>
408

$$$$
>  <compound>
C=CC(=O)N(C)Cc1c[nH]c2ncnc(-c3cccc(NC(=O)c4ccc(C(C)(C)C)cc4)c3C)c12

>  <readout.value>
693

$$$$
>  <compound>
C=CC(=O)N(C)Cc1c[nH]c2ncnc(-c3cccc(NC(=O)c4ccc(C5CC5)cc4)c3C)c12

>  <readout.value>
578

$$$$

Query: // Intrinsic clearance (CLint) lookup, key: C=CC(=O)N1CC(O)(c2c[nH]c3ncnc(-c4cc(F)cc(NC(=O)c5ccc(C6CC6)cc5)c4C)c23)C1
Response: 41

Query: // Intrinsic clearance (CLint) lookup, key: C=CC(=O)N1CCC(c2c[nH]c3ncnc(-c4cc(F)cc(NC(=O)c5ccc(C6CC6)cc5)c4C)c23)C1 (stereo unspecified)
Response: 171
